- Experiment: antimalarial activity against Dd2 strain (AID 2302);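 note: 0% = DMSO untreated growth and 100% = chloroquine plus artemisinin killed control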
- Conditions used: P. falciparum Dd2 in RBCs, LDH growth readout, 72 h; at 2 µM; active compounds read high
Kindly supply the reported growth inhibition values for the records listed here.
Form entry: value (%) — number only.

Query block: # lookup: growth inhibition of COc1ccc(CCNCCCCNCCc2ccc(OC)c3ccccc23)c2ccccc12
Result block: 33

Query block: # lookup: growth inhibition of CCOC(=O)c1ccc(N2CCN(c3cc(C)ccc3C)CC2)c(NC(=O)Nc2ccc(Cl)c(Cl)c2)c1
Result block: 42

Query block: # lookup: growth inhibition of N#CC(c1cccc(Cl)c1)c1ccc2c(C(F)(F)F)cc(C(F)(F)F)nc2n1 (stereo not given)
Result block: 97

Query block: # lookup: growth inhibition of O=C1CC(C(=O)Nc2cccc(-c3cccc(-c4nc5ccccc5[nH]4)c3)c2)c2ccccc2N1 (stereo not given)
Result block: 32

Query block: # lookup: growth inhibition of COc1ccc(CN(C)CC(O)COc2ccc(NC(=O)c3cccc4c(=O)c5cccc(OC)c5[nH]c34)cc2)cc1OC (stereo not given)
Result block: 65

* * *

- Experiment: human hepatoma cell viability loss – ATP luminescence, cytotoxicity control for P. falciparum antimalarial project, primary screen (AID 2303);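 note: 0% = DMSO wells and 100% = digitonin-killed cells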
- Conditions used: HepG2 viability, 24-48 h, at 10 µM, active compounds read high
Value kind: inhibition (%)
Form entry: value (%) — number only.

Query block: # lookup: inhibition of Nc1cccc(CNCc2ccc(-c3cccc(-c4nc5ccc(C(F)(F)F)cc5[nH]4)c3)cc2)c1
Result block: 60

Query block: # lookup: inhibition of NC(N)=NCCN(Cc1ccccc1)c1ccc(Cl)cc1
Result block: -7

Query block: # lookup: inhibition of Cc1cc(N[C@@H](CC(C)C)C(=O)NCCOc2ccccc2)nc(NCC2CCCCC2)n1
Result block: 24

Query block: # lookup: inhibition of CC(C)(C)c1ccc2oc(=O)n(C3CCN(C(=O)c4ccc([N+](=O)[O-])o4)CC3)c2c1
Result block: -8

Query block: # lookup: inhibition of CCOC(=O)c1[nH]c(-c2cc(Cl)nc(Cl)c2)nc1NC(=S)NCc1ccc(NS(C)(=O)=O)cc1
Result block: -1

Query block: # lookup: inhibition of C[C@@H]1CN(c2ncc(-c3ccc(CNC4Cc5ccccc5C4)cc3)cn2)C[C@H](C)N1
Result block: 27

Query block: # lookup: inhibition of Cc1ccc(-c2nnc(Nc3ccc(C(=O)N4CCCCC4)cc3)c3ccccc23)cc1S(=O)(=O)NCC1CCCO1 (stereo not drawn)
Result block: -5

Query block: # lookup: inhibition of O=C(Nc1ccc(-c2cccc(-c3nc4ccc(F)cc4[nH]3)c2)cc1)Nc1ccc(F)c(F)c1F
Result block: 70

Query block: # lookup: inhibition of COc1ccc(-c2cncc3ccc(C(=O)NCCCn4ccnc4)nc23)cc1
Result block: 28

Query block: # lookup: inhibition of Cc1ccccc1Nc1cc(Nc2ccccc2C)c2ccccc2n1
Result block: 28

Query block: # lookup: inhibition of Cc1[nH]c(C)c(-c2ccc(C(=O)c3ccccc3)cc2)c(=O)c1Br
Result block: -10

Query block: # lookup: inhibition of COc1ccc(NC(=O)Nc2cccc(-c3ccncc3)c2)cc1N1CCN(C)CC1
Result block: 9

Query block: # lookup: inhibition of NC1=NC(c2ccccc2)(c2ccccc2)C(=O)N1Cc1ccc(-c2cccnc2)cc1
Result block: 15

Query block: # lookup: inhibition of CCn1c(Sc2ccc(C#N)c([N+](=O)[O-])c2)nnc1-c1ccc(OC)cc1
Result block: -8

Query block: # lookup: inhibition of Cc1cc(-c2cccc(CNCCc3ccc(Cl)cc3)c2)cnc1N
Result block: 19

Query block: # lookup: inhibition of Cc1cccn2c(=O)c3cc(C(=O)NC4CCCCC4)c(=N)n(CCCn4ccnc4)c3nc12
Result block: 1

Query block: # lookup: inhibition of FC(F)(F)c1ccc(CSc2ccc3nnc(-c4ccccn4)n3n2)cc1
Result block: -2

Query block: # lookup: inhibition of O=C(/C=C/c1ccc(Cl)c(Cl)c1)NCCCCCCN1CCCN(C(=O)Nc2ccc(Cl)c(C(F)(F)F)c2)CC1
Result block: 25

Query block: # lookup: inhibition of O=C(Nc1cccc(CN2CCN(Cc3ccc(O)cc3)CC2)c1)c1ccc(-c2ccccc2)cc1
Result block: 40

Query block: # lookup: inhibition of N#Cc1ccccc1S(=O)(=O)N1CCCC(CNC(=O)[C@H](CC2CCCCC2)NC(=O)c2cc3ccccc3s2)C1 (stereo partly drawn)
Result block: 9

Query block: # lookup: inhibition of CNC(=O)c1cnc(Nc2ccc(OCC(O)CN(C)C)cc2)nc1Nc1cccc(OC)c1 (stereo not drawn)
Result block: 31

Query block: # lookup: inhibition of COc1ccc(CNCc2cccc(-c3cccc(-c4nc5ccc(C(F)(F)F)cc5[nH]4)c3)c2)cc1
Result block: 40

Query block: # lookup: inhibition of COc1ccc(CN2CCC(NCc3cccc(C(F)(F)F)c3)CC2)cc1
Result block: 6

Query block: # lookup: inhibition of CCOC(=O)c1[nH]c(-c2ccccc2)nc1NC(=S)NC1CCCCC1
Result block: 6

Query block: # lookup: inhibition of O=C(/C=C/c1ccccc1Cl)Nc1ccc(Br)c(OCCN2CCCCC2)c1
Result block: 11

Query block: # lookup: inhibition of CC1CCCC(NC(=O)CCOc2ccccc2)C1 (stereo not drawn)
Result block: -14

Query block: # lookup: inhibition of C[C@@H]1CN(C(c2cccc(O)c2)c2cccc(C(=O)N(C)c3cccc(F)c3)c2)[C@@H](C)CN1C(c1cccc(O)c1)c1cccc(C(=O)N(C)c2cccc(F)c2)c1 (stereo partly drawn)
Result block: 0

Query block: # lookup: inhibition of O=C(NC1CCC(CCN2Cc3ccc(Br)cc3C2)CC1)c1cccc(-c2cccnc2)c1 (stereo not drawn)
Result block: 14

Query block: # lookup: inhibition of Cc1nc(N)nc(N)c1OCCCOc1ccccc1Br
Result block: 57

Query block: # lookup: inhibition of NC1CCN(c2nc(NCCCc3ccc(O)cc3)nc(NCc3ccccc3-c3ccc(C(F)(F)F)cc3)n2)CC1
Result block: 15

Query block: # lookup: inhibition of COc1cccc(CN(C(=O)Nc2ccccc2F)[C@H]2C[C@H]3C(=O)Nc4cc(F)ccc4C(=O)N3C2)c1
Result block: -7

Query block: # lookup: inhibition of O=C(NCCc1ccc(F)cc1)c1ccc(N2CCN(c3ccncc3)CC2)nc1
Result block: 1

Query block: # lookup: inhibition of COc1ccc(-c2cccc(NC(=O)c3cccc(C#N)c3)c2)cc1CN1CCCN(C)CC1
Result block: 22

Query block: # lookup: inhibition of O=C(OCc1ccccn1)c1nc2ccccc2[nH]1
Result block: 63

Query block: # lookup: inhibition of CC(=O)Nc1ccc2[nH]cc(C3CCN(CCC4CCN(C(=O)/C=C/c5ccc(Cl)c(Cl)c5)CC4)CC3)c2c1
Result block: 13

Query block: # lookup: inhibition of COc1ccc(C=NNc2cc(C)nc3ccc(C)cc23)c2ccccc12
Result block: 28

Query block: # lookup: inhibition of CCOc1ccc(-c2cc3nc(C4CCNCC4)c(C(=O)Nc4ccc(C)cc4Cl)cn3n2)cc1
Result block: 63

Query block: # lookup: inhibition of O=C(NCC1CCC(C(=O)NC2CCCc3ccccc32)CC1)c1ccc(O)c(-c2ccc(Cl)c(Cl)c2)c1 (stereo not drawn)
Result block: -5

Ref: PubChem BioAssay
